- target_or_system: PI3K (p110α/p85α) (Homo sapiens (Human), UniProt P42336)
- Sequence (P42336 whole entry): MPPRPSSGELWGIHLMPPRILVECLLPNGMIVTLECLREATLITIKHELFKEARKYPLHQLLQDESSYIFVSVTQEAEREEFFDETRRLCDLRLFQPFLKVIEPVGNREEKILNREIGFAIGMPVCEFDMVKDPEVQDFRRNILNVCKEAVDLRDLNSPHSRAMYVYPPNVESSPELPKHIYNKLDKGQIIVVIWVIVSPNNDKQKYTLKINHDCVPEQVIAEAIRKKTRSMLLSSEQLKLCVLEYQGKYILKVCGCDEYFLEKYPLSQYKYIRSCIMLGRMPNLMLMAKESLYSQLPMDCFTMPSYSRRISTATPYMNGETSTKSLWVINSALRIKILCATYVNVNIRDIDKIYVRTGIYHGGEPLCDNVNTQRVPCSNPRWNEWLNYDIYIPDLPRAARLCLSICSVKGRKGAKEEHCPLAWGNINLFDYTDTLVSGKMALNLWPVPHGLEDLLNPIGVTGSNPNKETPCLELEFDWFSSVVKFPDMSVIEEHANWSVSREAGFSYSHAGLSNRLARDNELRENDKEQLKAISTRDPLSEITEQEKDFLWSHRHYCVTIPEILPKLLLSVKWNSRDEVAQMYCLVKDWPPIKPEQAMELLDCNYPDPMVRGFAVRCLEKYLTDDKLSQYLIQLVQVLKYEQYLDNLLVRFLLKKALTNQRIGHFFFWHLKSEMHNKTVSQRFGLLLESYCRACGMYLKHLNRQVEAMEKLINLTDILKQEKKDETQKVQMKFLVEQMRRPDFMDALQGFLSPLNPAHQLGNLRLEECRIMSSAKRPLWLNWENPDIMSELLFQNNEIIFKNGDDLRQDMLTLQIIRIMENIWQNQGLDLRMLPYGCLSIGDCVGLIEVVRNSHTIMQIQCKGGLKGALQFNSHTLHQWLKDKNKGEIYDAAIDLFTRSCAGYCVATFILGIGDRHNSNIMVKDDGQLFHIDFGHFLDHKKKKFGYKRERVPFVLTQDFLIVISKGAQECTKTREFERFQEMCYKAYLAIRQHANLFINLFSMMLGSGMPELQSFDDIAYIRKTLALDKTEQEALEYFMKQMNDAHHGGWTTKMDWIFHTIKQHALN
- Sequence (P27986 whole entry partner): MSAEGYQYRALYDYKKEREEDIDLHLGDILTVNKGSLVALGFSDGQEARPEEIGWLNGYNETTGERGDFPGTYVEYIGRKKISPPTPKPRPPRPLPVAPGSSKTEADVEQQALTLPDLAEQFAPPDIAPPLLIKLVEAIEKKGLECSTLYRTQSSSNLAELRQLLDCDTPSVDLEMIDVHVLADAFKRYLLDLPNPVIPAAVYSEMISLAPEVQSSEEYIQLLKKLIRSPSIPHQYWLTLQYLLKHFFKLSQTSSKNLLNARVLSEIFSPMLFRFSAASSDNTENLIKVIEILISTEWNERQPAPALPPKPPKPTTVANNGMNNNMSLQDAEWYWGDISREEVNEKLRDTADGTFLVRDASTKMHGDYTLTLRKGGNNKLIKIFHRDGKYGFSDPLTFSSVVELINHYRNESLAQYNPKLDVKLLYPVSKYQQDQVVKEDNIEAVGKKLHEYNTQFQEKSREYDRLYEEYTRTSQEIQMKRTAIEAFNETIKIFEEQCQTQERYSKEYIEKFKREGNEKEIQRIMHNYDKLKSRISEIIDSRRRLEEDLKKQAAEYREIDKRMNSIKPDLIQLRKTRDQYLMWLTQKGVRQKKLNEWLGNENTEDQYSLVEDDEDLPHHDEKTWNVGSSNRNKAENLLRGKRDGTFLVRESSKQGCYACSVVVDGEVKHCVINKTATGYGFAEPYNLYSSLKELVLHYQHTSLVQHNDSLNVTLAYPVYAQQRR
- assay_method_text: PI3K Activity Assay (ADP Hunter Plus)
- Format: biochemical
- experimental_conditions: read-out: Biological activity in PI3Kα, semi-quantitative
- Method: The kinase activity was measured by using the commercial ADP Hunter™ Plus assay available from DiscoveRx (#33-016), which is a homogeneous assay to measure the accumulation of ADP, a universal product of kinase activity. […] Fluorescence counts were read in a Victor instrument (Perkin Elmer) with the recommended settings (544 and 580 nm as excitation and emission wavelengths, respectively). […]
pIC50: −log10 of the molar value.
Catalogue of compounds with associated pIC50

The cases that follow already have their pIC50 on record.
structure_as_smiles=COc1ccc(-c2c(C)nc3sc(-c4ccc(OC)c(OC)c4)nn23)cn1 target_or_system="PI3K (p110α/p85α) (Homo sapiens (Human), UniProt P42336)" result="4.30 to 6.00"
structure_as_smiles=COc1cc(-c2nn3c(-c4cnc(N)c(C(F)(F)F)c4)cnc3s2)ccc1OC1CCNCC1 target_or_system="PI3K (p110α/p85α) (Homo sapiens (Human), UniProt P42336)" result="> 7.00"
structure_as_smiles=COc1ccc(-c2nn3c(-c4ccc(O)nc4)c(C)nc3s2)cc1OC target_or_system="PI3K (p110α/p85α) (Homo sapiens (Human), UniProt P42336)" result="4.30 to 6.00"

With those in mind, consider the next compound.
# pIC50 lookup, item CS(=O)(=O)Nc1cccc(-c2nn3c(-c4cnc(N)c(C(F)(F)F)c4)cnc3s2)c1
> 7.00

---

- target_or_system: PI3K (p110α/p85α) (Homo sapiens (Human), UniProt P42336)
- assay_method_text: PI3K Activity Assay (ADP Hunter Plus)
- Type: biochemical
- experimental_conditions: 10 μM compound concentration; read-out: Inhibition (%) of PI3Kα activity, Inh (%) at 10 μM
measure: inhibition at 10 µM (%)

structure_as_smiles=Nc1ncc(-c2nn3c(-c4ccc(F)nc4)cnc3s2)cc1C(F)(F)F numeric_value=97
structure_as_smiles=COc1cc(-c2nn3c(-c4cnc(N)c(C(F)(F)F)c4)c(C)nc3s2)ccc1OCCN1CCOCC1 numeric_value=83
structure_as_smiles=COc1cncc(-c2cnc3sc(-c4ccc(OC)c(OC)c4)nn23)c1 numeric_value=99
structure_as_smiles=COc1ccc(-c2nn3c(-c4ccc(C#N)nc4)cnc3s2)cc1OC numeric_value=95

---

- target_or_system: PI3K (p110α/p85α) (Homo sapiens (Human))
- assay_method_text: PI3K Activity Assay (ADP Hunter Plus)
- Assay type: biochemical
- experimental_conditions: read-out: Biological activity in PI3Kα, semi-quantitative
Catalogue of compounds with associated IC50

The cases that follow already have their IC50 on record.
compound=COc1cc(-c2nn3c(-c4cnc(N)nc4)cnc3s2)ccc1OC1CCN(C(=O)OC(C)(C)C)CC1 measure=IC50 result="1000 to 50000 nM"
compound=COc1ccc(-c2nn3c(-c4ccc(S(C)(=O)=O)c(F)c4)c(C)nc3s2)cc1OC measure=IC50 result="100 to 1000 nM"
compound=COc1ccc(-c2nn3c(-c4cnc(SC)nc4)cnc3s2)cc1OC measure=IC50 result="100 to 1000 nM"
compound=CS(=O)(=O)NCc1cccc(-c2nn3c(-c4cnc(N)c(C(F)(F)F)c4)cnc3s2)c1 measure=IC50 result="< 100 nM"
compound=COc1cc(-c2nn3c(-c4cnc(N)c(C(F)(F)F)c4)c(C)nc3s2)ccc1OCCNC(=O)OC(C)(C)C measure=IC50 result="1000 to 50000 nM"
compound=CCn1cc(-c2nn3c(-c4cnc(N)c(C(F)(F)F)c4)cnc3s2)cn1 measure=IC50 result="< 100 nM"

# IC50 lookup, item COc1cncc(-c2nn3c(-c4cnc(N)c(C(F)(F)F)c4)cnc3s2)c1
< 100 nM

# IC50 lookup, item COC(=O)c1ccc(-c2cnc3sc(-c4cnc(N)c(C(F)(F)F)c4)nn23)cc1OC
< 100 nM

The measured values listed here are drawn from patent US8815918B2.
